# System: CCRIS mutagenicity, Ames/micronucleus/aberration tests
# Measurement Description: CCRIS mutagenicity studies
# Test Context: Test System: AMES SALMONELLA TYPHIMURIUM; Strain/Indicator: TA100; Metabolic Activation: RAT, LIVER, S-9, AROCLOR 1254 (30%); Method: PREINCUBATION
Calls of active or inactive are those of the source. How the calls were made is not given here.
Outcomes: T = active, F = inactive

• COc1cc(Cl)c(OC)cc1Cl = F
• CN(C)CCO = F
• Cc1ccccc1N = F
• c1ccc2c(c1)ccc1cc3c(ccc4ccccc43)cc12 = T
• c1ccsc1 = F
• Cc1ccc2c(c1N)C(=O)c1ccccc1C2=O = T
• [O-][Br+2]([O-])O = F
• O=C(Nc1ccccc1)c1cc2ccccc2c(N=Nc2cc(Cl)ccc2Cl)c1O = F

###

# System: CCRIS mutagenicity, Ames/micronucleus/aberration tests
# Measurement Description: CCRIS mutagenicity studies
# Test Context: Test System: AMES SALMONELLA TYPHIMURIUM; Strain/Indicator: TA98; Metabolic Activation: HAMSTER, LIVER, S-9, AROCLOR 1254; Method: STANDARD PLATE
The source made the active and inactive calls. The rule behind the calls is not given here.
Outcomes: active, inactive

• C1CC[C@H]2O[C@H]2C1 = active
• O=C(O)CN(CC(=O)O)CC(=O)O = inactive
• C=C1CC[C@H]2C[C@@H]1C2(C)C = inactive
• OCCNc1ccc(N=Nc2ccc(NCCO)cc2)cc1 = active
• CC(=O)CC(=O)CCC(=O)O = inactive
• CCCCC(CC)COP(=O)(OCC(CC)CCCC)OCC(CC)CCCC (stereo not drawn) = inactive
• N#CCCNCCC#N = inactive
• Nc1ccc(S(=O)(=O)Nc2nccs2)cc1 = inactive
• C[C@@H]1CC[C@@]2(OC1)O[C@H]1C[C@H]3[C@@H]4CC=C5C[C@@H](O)CC[C@]5(C)[C@H]4CC[C@]3(C)[C@H]1[C@@H]2C = inactive
• CC=O = inactive
• COc1cc([C@@H]2c3cc4c(cc3[C@H](O)[C@H]3COC(=O)[C@H]23)OCO4)cc(OC)c1OC = inactive
• CC[C@H](C)[C@@H]([C@@H](CC(=O)N1CCC[C@H]1[C@H](OC)[C@@H](C)C(=O)N[C@@H](Cc1ccccc1)c1nccs1)OC)N(C)C(=O)[C@@H](NC(=O)[C@H](C(C)C)N(C)C)C(C)C = inactive
• CC/C(C)=N\O = inactive
• Nc1nc(Cl)cc(Cl)n1 = inactive
• N=C1C=CC(=C(c2ccc(N)cc2)c2ccc(N)cc2)C=C1 = active
• O=c1[nH]cnc2[nH]ncc12 = inactive
• CC(=O)/C=C/c1ccccc1 = inactive
• CCO[Si](OCC)(OCC)OCC = inactive

###

# Tested on: CCRIS mutagenicity, Ames/micronucleus/aberration tests
# Measurement Description: CCRIS mutagenicity studies
# Test Context: Test System: AMES SALMONELLA TYPHIMURIUM; Strain/Indicator: TA98; Metabolic Activation: NONE; Method: PREINCUBATION
Calls of active or inactive are those of the source. The rule behind the calls is not given here.
Outcomes: active, inactive

• COP(=S)(OC)Oc1ccc([N+](=O)[O-])c(C)c1 = inactive
• OCCCCO = inactive
• CC(=O)[C@]1(O)Cc2c(O)c3c(c(O)c2[C@@H](O[C@H]2C[C@H](N)[C@H](O)[C@H](C)O2)C1)C(=O)c1c(O)cccc1C3=O = active
• NC(=O)NNC(N)=O = inactive
• COc1nncc2cnccc12 = inactive
• COc1cc2c(c(OC)c1CO)C(=O)c1ccccc1C2=O = inactive
• CC(O)c1ccccc1 (centres undefined) = inactive
• CSC[C@H](N)C(=O)O = inactive
• O=C(O)/C=C(\CCl)C(Cl)Cl = inactive
• CC(=O)NNc1ccccc1 = inactive
• Cc1ccc(S(=O)(=O)NC(=O)NN2CCCCCC2)cc1 = inactive
• CNC(=O)NC = inactive
• C/C(C(=O)O)=C(\Cl)C(=O)O = inactive
• CC(=O)/C=C/c1ccc2c(c1)OCO2 = inactive
• COc1ccc([C@H]2O[C@H]2C)cc1 = inactive
• COc1ccc(C(=O)c2ccccc2)c(O)c1 = inactive
• Nc1ccc(Nc2ccc([N+](=O)[O-])cc2)cc1 = active
• CCN1CCNC(=O)C1=O = inactive
• O=C(O)Cc1ccc([N+](=O)[O-])cc1 = active
• CC1=CC(=O)C=C(C)C1=O = inactive
• CS(C)=O = inactive
• C=C(Cl)CCl = active
• Cl/C=C/C[N+]12CN3CN(CN(C3)C1)C2 = active
• NC1CCCC(N)C1 (centres undefined) = inactive
• Oc1ccc(Cl)cc1Cc1ccccc1 = inactive
• CC(=O)Nc1ccc(/C=N/n2nnc3c([nH]c4ccccc43)c2=O)cc1 = active
• [Cl][Mn][Cl] = inactive
• O=[N+]([O-])c1ccc(/C=C/c2ccc([N+](=O)[O-])cc2S(=O)(=O)O)c(S(=O)(=O)O)c1 = inactive
• CC(=O)C(C)=O = inactive

Origin of measurements: PubChem BioAssay AID1259407
